assay: in vivo; settings: male, Sprague-Dawley, rat, iv, 1 mg/kg
endpoint: AUC(0-t) at 24 h (ng·h/mL)
Numbers only, in ng·h/mL.

Req: Please give measured AUC(0-t) at 24 h of the following entry: O=C(Cc1ccccc1F)Nc1cccc(Sc2ccc3c(/C=C/c4ccccn4)n[nH]c3c2)c1
Resp: 1590

* * *

experiment: in vivo; conditions: male, Sprague-Dawley, rat, po, 10 mg/kg
endpoint: Cmax at 24 h (ng/mL)
Numbers only, in ng/mL.

Req: State its Cmax at 24 h for this compound: O=C(Cc1ccccc1F)Nc1cccc(Sc2ccc3c(/C=C/c4ccccn4)n[nH]c3c2)c1
Resp: 484

* * *

assay: in vivo; details: male, Sprague-Dawley, rat, iv, 1 mg/kg
endpoint: MRT last at 24 h
Form field: result (number plus unit)

Req: Write down MRT last at 24 h measured for item O=C(Cc1ccccc1F)Nc1cccc(Sc2ccc3c(/C=C/c4ccccn4)n[nH]c3c2)c1
Resp: 1.62 h

* * *

experiment: in vivo; conditions: male, Sprague-Dawley, rat, po, 10 mg/kg
endpoint: Tmax at 24 h

Req: Please report the measured Tmax at 24 h for O=C(Cc1ccccc1F)Nc1cccc(Sc2ccc3c(/C=C/c4ccccn4)n[nH]c3c2)c1
Resp: 1.67 h

* * *

assay: in vivo; conditions: male, Sprague-Dawley, rat, iv, 1 mg/kg
endpoint: Cmax at 24 h (µg/mL)
Give bare numbers, in µg/mL.

Req: Return Cmax at 24 h (reported value) for this compound: O=C(Cc1ccccc1F)Nc1cccc(Sc2ccc3c(/C=C/c4ccccn4)n[nH]c3c2)c1
Resp: 1.47

* * *

assay: in vivo; details: male, Sprague-Dawley, rat, iv, 1 mg/kg
endpoint: Tmax at 24 h
Please state the number and follow it with the unit.

Req: Recall and state the measured Tmax at 24 h for O=C(Cc1ccccc1F)Nc1cccc(Sc2ccc3c(/C=C/c4ccccn4)n[nH]c3c2)c1 .
Resp: 1.8 min

The measured values listed here are drawn from ChEMBL document CHEMBL5614461.
